System: NUGC3 cells (p53 Y220C)
Assay: Cell Proliferation Assay (CellTiter-Glo), NUGC3 p53 Y220C
Type: cell-based
Details: Homo sapiens, NUGC-3, 120 h, 5 days, read-out: CTG NUGC3 P53 Y220C IC50
pIC50: −log10 of the molar value.
Here the recorded pIC50 is given for each entry.

>  <input.smiles>
CN1CC[C@@H](Nc2cccn3c(SC(F)(F)F)c(-c4noc(CNC(=O)C5(F)CCOCC5)n4)cc23)[C@@H](F)C1

>  <pIC50>
5.52 to 5.82

$$$$
>  <input.smiles>
CC(C)C(=O)NCc1nc(-c2cc3c(N[C@@H]4CCN(C)C[C@@H]4F)cccn3c2SC(F)(F)F)no1

>  <pIC50>
5.52 to 5.82

$$$$
>  <input.smiles>
Cc1noc(C(=O)NCc2nc(-c3cc4c(N[C@@H]5CCN(C)C[C@@H]5F)cccn4c3SC(F)(F)F)no2)n1

>  <pIC50>
5.82 to 6.12

$$$$
>  <input.smiles>
CN1CC[C@@H](Nc2cccn3c(SC(F)(F)F)c(-c4noc(CNC(=O)c5cnc(C(C)(C)C)o5)n4)cc23)[C@@H](F)C1

>  <pIC50>
> 6.12

$$$$

Just for reference, patent US20260347353A1 is where these values come from.
